Target: Cytochrome P450 2C9 (Homo sapiens)
Assay: Cytochrome P450 Family 2 Subfamily C Member 9 (CYP2C9) small molecule antagonists: luciferase reporter qHTS assay (AID 1671198); note: nearly all actives have a fitted effect of over 50% in size; note: potency is the fitted concentration of half-maximal effect
Conditions: P450-Glo CYP2C9 enzyme assay, luciferin luminescence; series mostly up to 115 µM
Description: U.S. Tox21 Program National Center for Advancing Translational Sciences [NCATS] U.S. Environmental Protection Agency [EPA] National Institutes of Environmental Health Sciences [NIEHS] National Toxicology Program [NTP] U.S. Food and Drug Administration [FDA] […] The luciferin products formed are detected with a luciferin detection reagent, and the amount of light produced is proportional to CYP activity. […]
Records with an inconclusive call do not appear. Calls of active or inactive are those of the source. Calls come from the whole dose curve; as a rule, active = well fitted inhibition curve with a large enough effect in the repeat runs; inconclusive = weak or mixed curves; inactive = no such curve, though single readings can be large or run the other way.
EXPERIMENTAL_READOUT: Potency

MOLECULE	EXPERIMENTAL_READOUT	VALUE_MEASURED
NCCNC(=O)c1ccc(Cl)cn1	Potency	inactive
CCC(=O)/C=C/c1ccc(OC)cc1	Potency	39.9 µM (active)
CC1=CCC2C(C1)C2(C)C (configuration not stated)	Potency	63.3 µM (active)
OC[C@H]1O[C@@H]2O[C@H]3[C@H](O)[C@@H](O)[C@@H](O[C@H]4[C@H](O)[C@@H](O)[C@@H](O[C@H]5[C@H](O)[C@@H](O)[C@@H](O[C@H]6[C@H](O)[C@@H](O)[C@@H](O[C@H]7[C@H](O)[C@@H](O)[C@@H](O[C@H]8[C@H](O)[C@@H](O)[C@@H](O[C@H]9[C@H](O)[C@@H](O)[C@@H](O[C@H]1[C@H](O)[C@H]2O)O[C@@H]9CO)O[C@@H]8CO)O[C@@H]7CO)O[C@@H]6CO)O[C@@H]5CO)O[C@@H]4CO)O[C@@H]3CO	Potency	inactive
O=C1C(CCS(=O)c2ccccc2)C(=O)N(c2ccccc2)N1c1ccccc1 (configuration not stated)	Potency	30.9 µM (active)
Cc1nccn1CC1CCc2c(c3ccccc3n2C)C1=O (configuration not stated)	Potency	inactive
CC(CCO)CCCC(C)(C)O (configuration not stated)	Potency	inactive
CCCCC=O	Potency	79.6 µM (active)
CC1(C)SC(C)(C)SC(C)(C)S1	Potency	inactive
C=CCOc1nc(OCC=C)nc(OCC=C)n1	Potency	15.9 µM (active)
Nc1[nH]c(=O)ncc1F	Potency	inactive
COCCOC(=O)CC#N	Potency	inactive
OCCN1C[C@H](O)[C@@H](O)[C@H](O)[C@H]1CO	Potency	inactive
COc1nc(C)nc(N)n1	Potency	inactive
O=S(=O)(O)c1ccccc1O	Potency	inactive
CCCCCC[C@@H](CCC)C(=O)O	Potency	34.7 µM (active)
COCc1ccc(COC)cc1	Potency	inactive
CCC(C)OC(=O)N1CCCCC1CCO (configuration not stated)	Potency	79.6 µM (active)
NCCN1CCNC1=O	Potency	inactive
O=c1[nH]c2ccccc2c(=O)n1CCCl	Potency	inactive
C#CC(O)CCCCC (configuration not stated)	Potency	inactive
O=C(O)c1ccc[n+]([O-])c1	Potency	inactive
CC(C)c1ccc2oc3nc(N)c(C(=O)O)cc3c(=O)c2c1	Potency	13.8 µM (active)
CC(=O)OC(C)(C)C	Potency	inactive
CCC(=O)c1cccc(Cl)c1	Potency	inactive
CC(=O)c1ccc(C)cc1	Potency	inactive
O=[N+]([O-])c1ccc(CCO)cc1	Potency	inactive
